Provide the recorded pIC50 for the entries that follow.
# measurement_target: Phospholipase A2 (Apis mellifera)
# method: Inhibitory activity against bee secretory Phospholipase A2 enzyme
Answers are plain numbers, as −log10 of the molar value.

> print(dat)
                                   molecule  observation.type  observed.value
1  CC(C)=CCC/C(C)=C/CC/C(C)=C/CC1=CCC(C2=CC(=O)OC2O)OC1O (configuration not stated)             pIC50            6.30

In the following, a different molecule is considered.
Query string: I have this molecule here, CC(C)=CCC/C(C)=C/CC/C(C)=C/CC1=CCC(C2=CC(=O)OC2O)OC1 (configuration not stated) , and I need its recorded pIC50.
Result string: 5.77

----------
# measurement_target: Phospholipase A2 (Apis mellifera)
# method: Inhibitory activity against bee secretory Phospholipase A2 enzyme when pre-incubated for 60 minutes
observation_type: inhibition
Give the value; after it, write the unit.

Example cases with answers are listed next.
> print(dat)
                                   molecule  observation.type  observed.value
1  C=C1CCC[C@H]2[C@](C)(CCC3=CCC(C4=CC(=O)OC4O)OC3)[C@H](C)CC[C@]12C (some centres undefined)        inhibition            100%
2  CC(C)=CCC/C(C)=C/CC/C(C)=C/CC1=CCC(C2=CC(=O)OC2O)OC1O (centres undefined)        inhibition           95.1%
3  CC(C)=CCC/C(C)=C/CC/C(C)=C/CC1=CCC(C2=CC(=O)OC2O)OC1 (centres undefined)        inhibition           99.7%

Query string: I have this molecule here, `CC1=C(CC/C(C)=C/CCC2=CC[C@H](C3=CC(=O)O[C@H]3O)O[C@H]2O)C(C)(C)CCC1` , and I need its recorded inhibition.
Result string: 91.1%

----------
# measurement_target: Phospholipase A2 (Apis mellifera) (UniProt P00630)
# Sequence (whole entry): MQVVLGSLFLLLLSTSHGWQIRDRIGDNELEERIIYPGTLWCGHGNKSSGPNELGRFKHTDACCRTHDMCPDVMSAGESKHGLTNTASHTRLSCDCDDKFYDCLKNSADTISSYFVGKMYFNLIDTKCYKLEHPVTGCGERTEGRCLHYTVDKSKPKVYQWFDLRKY
# method: Inhibitory activity against bee secretory Phospholipase A2 enzyme when pre-incubated with Tris buffer for 15 minutes
observation_type: inhibition (%)
One number for each entry, in %.

> print(dat)
                                   compound  observed.value
1  CC1=C(CC/C(C)=C/CCC2=CC[C@H](C3=CC(=O)O[C@H]3O)O[C@H]2O)C(C)(C)CCC1            44.2
2  CC(C)=CCC/C(C)=C/CC/C(C)=C/CC1=CCC(C2=CC(=O)OC2O)OC1O (centres undefined)            80.9
3  CC(C)=CCC/C(C)=C/CC/C(C)=C/CC1=CCC(C2=CC(=O)OC2O)OC1 (centres undefined)            58.7

Query string: I have this compound here, C=C1CCC[C@H]2[C@](C)(CCC3=CCC(C4=CC(=O)OC4O)OC3)[C@H](C)CC[C@]12C (some centres undefined) , and I need its recorded inhibition.
Result string: 95.4
